Below, each entry is listed with its recorded melting point.
Quick note: give the figure in °C, leave out the unit.

Below: 3 compounds and their reported melting point.
1) O=C(/C=C/c1cccc(S(=O)(=O)N2CCN(C/C=C/c3ccccc3)CC2)c1)NO :: 178
2) CC(=O)c1ccc(C(=O)NCC(=O)NCC(F)(F)F)c2ccccc12 :: 169
3) CCOC(=O)N1CCC(Nc2ccc(Cl)cc2[N+](=O)[O-])CC1 :: 116

We now examine a further compound.
// query melting point value for entry N#CC1=C(C2CCCCCC2)Nc2n[nH]cc2C1c1cccc2nonc12 (stereo not given)
228

###

Below, each entry is listed with its recorded melting point.

Below: 5 compounds and their reported melting point.
1) CC(C)n1cc(C(=O)NCc2ccc(Cl)cc2)c(=O)c2cc(CCCO)sc21 :: 84 to 92 °C
2) C#CCOc1cc(-n2nc(C(C)(C)C)oc2=O)c(F)cc1Cl :: 72 to 73 °C
3) CCc1cnc2c(c1)S(=O)(=O)NC2=O :: 199 to 201 °C
4) CN(Cc1ccccc1)c1nccc2ccccc12 :: 53.5 to 54.5 °C
5) CN(C)c1nc2cc(NC(=O)c3c(C(=O)N4CCOCC4)cnn3C)ccn2n1 :: 196 to 198 °C

We now examine a further compound.
// query melting point value for entry N#Cc1ccc(N2C(=O)C3CSCN3C2=O)c2ccccc12 (stereo unspecified)
223 to 225 °C
